tested on: HSkMC; experiment: cytotoxicity call (relative viability < 0.9); details: 10 µM
In all, about 39,000 compounds went through this assay and about 1,500 (3.8%) were called active. What follows is part of a selection rich in actives, with near analogues and random picks from the rest.
Allowed answers: active, inactive

Use these answered entries as a reference point.
Exercise: How did this test come out for COc1ccc(CN(C)C[C@H]2Oc3c(NC(=O)Nc4ccc(C(F)(F)F)cc4)cccc3C(=O)N([C@@H](C)CO)C[C@H]2C)cc1 ?
Solution: inactive

Exercise: How did this test come out for COc1ccc(CN(C)C[C@H]2Oc3c(NC(=O)Nc4ccc(C(F)(F)F)cc4)cccc3C(=O)N([C@H](C)CO)C[C@@H]2C)cc1 ?
Solution: active

Exercise: How did this test come out for COc1ccc(NC(=O)Nc2cccc3c2O[C@@H](CN(C)Cc2ccc(C(F)(F)F)cc2)[C@@H](C)CN([C@H](C)CO)C3=O)cc1 ?
Solution: inactive

Switching to the query record.
Exercise: How did this test come out for COc1ccc(NC(=O)Nc2cccc3c2O[C@@H](CN(C)Cc2ccc(C(F)(F)F)cc2)[C@H](C)CN([C@H](C)CO)C3=O)cc1 ?
Solution: inactive

----------
system: HSkMC; assay: cytotoxicity call (relative viability < 0.9); details: 10 µM
Among all 39,000 compounds or so, about 1,500 (3.8%) were called active. The full list was thinned out, with actives kept by preference.
Allowed answers: 1 (active), -1 (inactive)

Exercise: How did this test come out for C[C@H](CO)N1C[C@H](C)[C@@H](CN(C)C(=O)Nc2ccc(F)cc2)Oc2ccc(NC(=O)Nc3ccc(C(F)(F)F)cc3)cc2CC1=O ?
Solution: -1

Exercise: How did this test come out for C[C@@H]1CCCCO[C@@H](CN(C)C(=O)NC2CCCCC2)[C@H](C)CN([C@@H](C)CO)C(=O)c2cc(NC(=O)CCC(F)(F)F)ccc2O1 ?
Solution: -1

Exercise: How did this test come out for C[C@H]1CN([C@@H](C)CO)C(=O)c2cccc(NC(=O)c3cnccn3)c2O[C@@H]1CN(C)S(=O)(=O)c1cccs1 ?
Solution: -1

Others:
Exercise: How did this test come out for C[C@H]1CN([C@@H](C)CO)C(=O)Cc2cc(NC(=O)Nc3ccc(F)cc3)ccc2O[C@@H]1CN(C)C(=O)Nc1ccc(C(F)(F)F)cc1 ?
Solution: -1

Exercise: How did this test come out for C[C@H]1CN([C@@H](C)CO)C(=O)Cc2cc(NC(=O)Nc3ccc(C(F)(F)F)cc3)ccc2O[C@H]1CN(C)C(=O)Nc1ccc(C(F)(F)F)cc1 ?
Solution: 1

Exercise: How did this test come out for C[C@@H]1CN([C@@H](C)CO)C(=O)Cc2cc(NC(=O)Nc3ccc(F)cc3)ccc2O[C@H]1CN(C)C(=O)Nc1ccc(C(F)(F)F)cc1 ?
Solution: -1

Exercise: How did this test come out for Cc1ccc(S(=O)(=O)N[C@H]2CC[C@@H](CC(=O)N3CCC(Cc4ccccc4)CC3)O[C@@H]2CO)cc1 ?
Solution: -1

----------
tested on: HSkMC; assay: cytotoxicity call (relative viability < 0.9); conditions: 10 µM
Hit rate of the full screen: of about 39,000 compounds, about 1,500 (3.8%) were called active. The entries come from a sample that favours actives as a whole.
Allowed answers: 1.0 (active), 0.0 (inactive)

Use these answered entries as a reference point.
Exercise: How did this test come out for CCN(CC)c1ccnc([C@H]2COCCN2)n1 ?
Solution: 0.0

Exercise: How did this test come out for Cc1noc(C)c1NC(=O)N(C)C[C@@H]1Oc2c(NC(=O)c3ccc(-c4nccs4)cc3)cccc2C(=O)N([C@H](C)CO)C[C@@H]1C ?
Solution: 0.0

Others:
Exercise: How did this test come out for C[C@H](CO)N1C[C@H](C)[C@H](CN(C)Cc2ccc(Cl)c(Cl)c2)Oc2ccc(NC(=O)Cc3cn(C)c4ccccc34)cc2C1=O ?
Solution: 1.0

----------
tested on: HSkMC; assay: cytotoxicity call (relative viability < 0.9); settings: 10 µM
Among all 39,000 compounds or so, about 1,500 (3.8%) were called active. Many of the other results were omitted from the sample, so actives are more common in it than they were.
Allowed answers: active, inactive

Use these answered entries as a reference point.
Exercise: How did this test come out for C[C@@H]1CN([C@H](C)CO)C(=O)Cc2cc(NC(=O)CCCCCC(=O)Nc3ccccc3N)ccc2O[C@H]1CN(C)CC1CCCCC1 ?
Solution: inactive

Exercise: How did this test come out for Cc1ccc(S(=O)(=O)N(C)C[C@H]2Oc3ccc(NC(=O)Nc4ccc(C(F)(F)F)cc4)cc3CC(=O)N([C@H](C)CO)C[C@H]2C)cc1 ?
Solution: active

Exercise: How did this test come out for C[C@H]1CN([C@@H](C)CO)C(=O)c2cc(NC(=O)CCCCCC(=O)Nc3ccccc3N)ccc2O[C@H]1CN(C)Cc1ccc(-c2ccccc2)cc1 ?
Solution: inactive

Exercise: How did this test come out for C[C@@H]1CN([C@H](C)CO)C(=O)Cc2cc(NC(=O)CCCCCC(=O)Nc3ccccc3N)ccc2O[C@@H]1CN(C)Cc1ccc(Oc2ccccc2)cc1 ?
Solution: active

Exercise: How did this test come out for Cc1ccc(S(=O)(=O)N(C)C[C@H]2Oc3ccc(NC(=O)Nc4ccc(C(F)(F)F)cc4)cc3CC(=O)N([C@H](C)CO)C[C@@H]2C)cc1 ?
Solution: active

Others:
Exercise: How did this test come out for C[C@@H]1CN([C@H](C)CO)C(=O)Cc2cc(NC(=O)CCCCCC(=O)Nc3ccccc3N)ccc2O[C@@H]1CN(C)CC1CCCCC1 ?
Solution: active

----------
test system: HSkMC; experiment: cytotoxicity call (relative viability < 0.9); settings: 10 µM
Out of some 39,000 compounds screened, about 1,500 (3.8%) were called active. The entries come from a sample that favours actives as a whole.
Allowed answers: active, inactive

Use these answered entries as a reference point.
Exercise: How did this test come out for COc1ccc(CN(C)C[C@@H]2OCCCC[C@H](C)Oc3ccc(NC(=O)Nc4ccc(F)cc4)cc3C(=O)N([C@@H](C)CO)C[C@@H]2C)cc1 ?
Solution: inactive

Exercise: How did this test come out for COc1ccc(CCN(C)CCCOc2ccc(S(=O)(=O)c3[nH]c4ccccc4c3C(C)C)cc2)cc1OC ?
Solution: active

Exercise: How did this test come out for COc1ccc(CN(C)C[C@@H]2OCCCC[C@H](C)Oc3ccc(NC(=O)Nc4ccc(F)cc4)cc3C(=O)N([C@H](C)CO)C[C@@H]2C)cc1 ?
Solution: inactive

Exercise: How did this test come out for CCOc1nc2ccccc2c(=O)n1CCO ?
Solution: inactive

Exercise: How did this test come out for COc1ccc(CCN(C)CCCOc2ccc(S(=O)(=O)c3c(C(C)C)c4ccccc4n3C)cc2)cc1OC ?
Solution: active

Others:
Exercise: How did this test come out for COc1ccc(CN(C)C[C@H]2OCCCC[C@@H](C)Oc3ccc(NC(=O)Nc4ccccc4)cc3C(=O)N([C@H](C)CO)C[C@H]2C)cc1 ?
Solution: active

Exercise: How did this test come out for COc1ccc(CN(C)C[C@H]2OCCCC[C@@H](C)Oc3ccc(NC(=O)Nc4ccc(F)cc4)cc3C(=O)N([C@H](C)CO)C[C@H]2C)cc1 ?
Solution: active

----------
test system: HSkMC (human skeletal muscle cells); assay: cytotoxicity call (relative viability < 0.9); conditions: 10 µM
The whole screen tested about 39,000 compounds, of which about 1,500 (3.8%) were called active. What follows is part of a selection rich in actives, with near analogues and random picks from the rest.
Allowed answers: true = active, false = inactive

Use these answered entries as a reference point.
Exercise: How did this test come out for CC[C@@H](C)SSc1ncc[nH]1 ?
Solution: true

Exercise: How did this test come out for Cc1ccc(S(=O)(=O)Nc2ccc3c(c2)CC(=O)N([C@@H](C)CO)C[C@@H](C)[C@H](CN(C)C(=O)NC(C)C)O3)cc1 ?
Solution: false

Exercise: How did this test come out for COc1ccc(S(=O)(=O)Nc2ccc3c(c2)C(=O)N([C@H](C)CO)C[C@@H](C)[C@H](CN(C)Cc2ccc(C(F)(F)F)cc2)OCCCC[C@@H](C)O3)cc1 ?
Solution: false

Exercise: How did this test come out for CC(C)(C)c1cc(NC(=O)Nc2ccc(Oc3ccnc4nc(O)cnc34)cc2F)n(-c2ccccc2)n1 ?
Solution: true

Exercise: How did this test come out for C[C@@H]1CN([C@@H](C)CO)C(=O)Cc2cc(NC(=O)Nc3ccc(C(F)(F)F)cc3)ccc2O[C@@H]1CN(C)Cc1ccncc1 ?
Solution: false

Exercise: How did this test come out for C[C@H]1CN([C@@H](C)CO)C(=O)Cc2cc(NC(=O)Nc3ccc(C(F)(F)F)cc3)ccc2O[C@@H]1CN(C)Cc1ccc(Cl)c(Cl)c1 ?
Solution: false

Exercise: How did this test come out for COc1ccc(S(=O)(=O)Nc2ccc3c(c2)C(=O)N([C@@H](C)CO)C[C@@H](C)[C@@H](CN(C)Cc2ccc(C(F)(F)F)cc2)OCCCC[C@H](C)O3)cc1 ?
Solution: false

Exercise: How did this test come out for COc1ccc(S(=O)(=O)Nc2ccc3c(c2)C(=O)N([C@H](C)CO)C[C@H](C)[C@@H](CN(C)Cc2ccc(C(F)(F)F)cc2)OCCCC[C@@H](C)O3)cc1 ?
Solution: true

Exercise: How did this test come out for COc1ccc(S(=O)(=O)Nc2ccc3c(c2)C(=O)N([C@@H](C)CO)C[C@@H](C)[C@H](CN(C)Cc2ccc(C(F)(F)F)cc2)OCCCC[C@@H](C)O3)cc1 ?
Solution: true

Exercise: How did this test come out for COc1ccc(cc1)CN1CC[C@]2(CC1)CN([C@@H](CO)c1[nH]c3cc(ccc3c12)OC)C(=O)CN(C)C ?
Solution: false

Others:
Exercise: How did this test come out for C[C@H](CO)N1C[C@H](C)[C@@H](CN(C)Cc2ccc(Cl)c(Cl)c2)Oc2ccc(NC(=O)Nc3ccc(C(F)(F)F)cc3)cc2CC1=O ?
Solution: true

Exercise: How did this test come out for COc1ccc(S(=O)(=O)Nc2ccc3c(c2)C(=O)N([C@H](C)CO)C[C@@H](C)[C@@H](CN(C)Cc2ccc(C(F)(F)F)cc2)OCCCC[C@@H](C)O3)cc1 ?
Solution: true

Exercise: How did this test come out for C[C@H]1CN([C@@H](C)CO)C(=O)Cc2cc(NC(=O)Nc3ccc(C(F)(F)F)cc3)ccc2O[C@H]1CN(C)Cc1ccncc1 ?
Solution: false

Exercise: How did this test come out for OCc1ncc[nH]1 ?
Solution: false

Exercise: How did this test come out for COc1ccc(S(=O)(=O)Nc2ccc3c(c2)C(=O)N([C@@H](C)CO)C[C@H](C)[C@@H](CN(C)Cc2ccc(C(F)(F)F)cc2)OCCCC[C@@H](C)O3)cc1 ?
Solution: false

Exercise: How did this test come out for COc1cccc(S(=O)(=O)N(C)C[C@@H]2Oc3ncc(C#CCN(C)C)cc3C(=O)N([C@@H](C)CO)C[C@@H]2C)c1 ?
Solution: false

Exercise: How did this test come out for C[C@@H]1CN([C@@H](C)CO)C(=O)Cc2cc(NC(=O)CCCCCC(=O)Nc3ccccc3N)ccc2O[C@H]1CN(C)Cc1ccccc1 ?
Solution: false

Exercise: How did this test come out for CC(C)C(=O)Nc1ccc([N+](=O)[O-])c(C(F)(F)F)c1 ?
Solution: false

Exercise: How did this test come out for COc1ccc(CN(C)C[C@@H]2Oc3ccc(NS(=O)(=O)c4c(C)noc4C)cc3CC(=O)N([C@H](C)CO)C[C@H]2C)cc1 ?
Solution: false
